Kindly state koff for each of the entries shown.
target_under_test: T1, human activated protein C (human, UniProt P04070 43-197; P04070 212-461)
T1 construct: also called human aPC; human APC
measurement_protocol: SPR (Biacore), 1:1 binding model
Reply with just the number (in s⁻¹).

Ask: Would you mind telling me what koff value was observed for Hu1573-6 (antibody, V domains shown, Humanized IgG, human gamma 1 / kappa constant regions by vectors pCP-hCg1 and pCP-hck; also called H1573VH.1C + H1573Vk.2) VH: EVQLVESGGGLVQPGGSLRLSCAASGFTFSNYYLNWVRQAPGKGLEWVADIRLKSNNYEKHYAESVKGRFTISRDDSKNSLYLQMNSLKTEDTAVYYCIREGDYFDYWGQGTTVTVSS VL: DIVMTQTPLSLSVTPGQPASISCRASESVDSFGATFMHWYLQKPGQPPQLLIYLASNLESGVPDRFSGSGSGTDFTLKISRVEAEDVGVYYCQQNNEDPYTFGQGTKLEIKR ?
Reply: 0.00848

Ask: Look at this binder and give its reported koff. Hu1573-5 (antibody, V domains shown, Humanized IgG, human gamma 1 / kappa constant regions by vectors pCP-hCg1 and pCP-hck; also called H1573VH.1B + H1573Vk.2B) VH: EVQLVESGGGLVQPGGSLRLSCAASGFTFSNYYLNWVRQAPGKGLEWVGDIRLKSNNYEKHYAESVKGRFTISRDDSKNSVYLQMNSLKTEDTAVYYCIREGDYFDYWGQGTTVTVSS VL: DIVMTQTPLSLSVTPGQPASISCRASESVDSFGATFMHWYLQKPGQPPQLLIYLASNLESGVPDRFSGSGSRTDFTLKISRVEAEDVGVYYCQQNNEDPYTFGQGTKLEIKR
Reply: 0.0064

Sourced from patent USRE49099
